Values from ChEMBL document CHEMBL5223084

Exercise: for every item that follows, state its recorded Vdss.
Conditions: rat, in vivo, po, 3 mg/kg, 24 h
One number for each entry, in L/kg.

As a guide, the following entries are already answered.
compound=CC(C)N1CCC(c2nnc(-c3nn(C(C)C)c4ccccc34)o2)CC1 units=L/kg test_value=10
compound=CC(C)n1nc(-c2nnc(C3CCN(CC4CC4)CC3)o2)c2ccccc21 units=L/kg test_value=8
compound=CC(C)n1nc(-c2nnc(C3CCN(CC4CCC4)CC3)o2)c2ccccc21 units=L/kg test_value=4.9
compound=COCCCN1CCC(c2nnc(-c3nn(C(C)C)c4ccccc34)o2)CC1.O=C(O)C(=O)O units=L/kg test_value=8

Consider the additional compound presented here.
Enquiry: What value of Vdss has been recorded for this entry: CC(C)n1c(=O)c(C(=O)NCCCN2CCCCC2)c(O)c2ccsc21 [PRX-03140]
Return: 7.6

====

Test: Terminal half life in Beagle dog at 1 mg/kg, iv
Assay type: ADME, organism-based, Canis lupus familiaris
Settings: in vivo, read-out: beta t1/2 (converted)
property label: half-life (h)
Answers are plain numbers, in h.

Enquiry: What value of half-life has been recorded for this entry: COCCCN1CCC(c2nnc(-c3nn(C(C)C)c4ccccc34)o2)CC1.O=C(O)C(=O)O
Return: 6

====

Assay: in vivo
Details: Wistar, rat, po, 3 mg/kg
property label: half-life at 24 h
I'd appreciate it if you included the unit after the number.

// for each molecule in input: emit half-life at 24 h
1. CC(C)n1nc(-c2nnc(C3CCN(CC4CC4)CC3)o2)c2ccccc21
2. CC(C)n1nc(-c2nnc(C3CCN(CC4CCC4)CC3)o2)c2ccccc21
3. CC(C)n1c(=O)c(C(=O)NCCCN2CCCCC2)c(O)c2ccsc21 [PRX-03140]
4. CC(C)N1CCC(c2nnc(-c3nn(C(C)C)c4ccccc34)o2)CC1

Return:
1.7 h
2.3 h
1.5 h
1.9 h

====

Exercise: for every item that follows, state its recorded Kp at 1 h.
Test: in vivo
Conditions: Wistar, rat, brain and plasma, po, 10 mg/kg
One number for each entry.

compound_string=CC(C)n1c(=O)c(C(=O)NCCCN2CCCCC2)c(O)c2ccsc21 test_value=1.6

Consider the additional compound presented here.
Enquiry: What value of Kp at 1 h has been recorded for this entry: CC(C)N1CCC(c2nnc(-c3nn(C(C)C)c4ccccc34)o2)CC1
Return: 3.6

====

Test: Oral bioavailability in Beagle dog at 1 mg/kg
Type: ADME, organism-based, Canis lupus familiaris
Conditions: in vivo
property label: bioavailability

Enquiry: What value of bioavailability has been recorded for this entry: COCCCN1CCC(c2nnc(-c3nn(C(C)C)c4ccccc34)o2)CC1.O=C(O)C(=O)O
Return: 72%

====

Test: in vivo
Settings: Wistar, rat, po, 3 mg/kg
property label: bioavailability at 24 h

compound=CC(C)n1nc(-c2nnc(C3CCN(CC4CCC4)CC3)o2)c2ccccc21 test_value=2.6%

Consider the additional compound presented here.
Enquiry: What value of bioavailability at 24 h has been recorded for this entry: CC(C)n1c(=O)c(C(=O)NCCCN2CCCCC2)c(O)c2ccsc21 [PRX-03140]
Return: 2%

====

Assay: Tmax in Beagle dog at 1 mg/kg, po
Assay type: ADME, organism-based, Canis lupus familiaris
Settings: in vivo
property label: Tmax (min)
Numbers only, in min.

Enquiry: What value of Tmax has been recorded for this entry: COCCCN1CCC(c2nnc(-c3nn(C(C)C)c4ccccc34)o2)CC1.O=C(O)C(=O)O
Return: 30
